Recorded growth for the following compounds
- Test system: SF-539 CNS
- experiment description: NCI-60 one-dose screen, 48 h (100 = growth as untreated, 0 = no growth, -100 = all killed)
- test conditions: 10 µM unless noted
This is part of a sample that, as a whole, favours compounds with a hit. Of some 83,000 tested, about 20% had one in any assay.
Give the value, in units of %, as a plain number.

Would you please look over these solved cases?
CSc1ccc(C(=O)C[n+]2cccc(C)c2)cc1 99.7
c1cncc(-c2nc3ccccc3[nH]2)c1 97.8

Bench note, SF-539 CNS: "CC(=O)Oc1ccc(C(OC(C)=O)OC(C)=O)cc1" , growth reads 99.7

Assay SF-539 CNS, sample "COc1ccc(Cl)cc1NC(=O)c1cc2c([nH]1)-c1nc(NC(=O)C(C)(C)C)sc1CC2" , growth read: -14.6

====

- Tested on: SW-620 colon
- experiment description: NCI-60 one-dose screen, 48 h
- test conditions: 10 µM unless noted
Compounds without any hit were thinned out: in the full panel of roughly 83,000, 20% have a hit. Activity calls are given as the source filed them. The calls were made as follows: active = growth percent below 10; inactive = the rest.
// one of t (active), f (inactive), no free text

# example entries with known answers
molecule	class name
O=C1OC(N(Cc2ccc(Cl)cc2)c2ccccc2)c2ccccc21 (stereo not given)	f
S=C=NP1(N=C=S)=NP(N=C=S)(N=C=S)=NP(N=C=S)(N=C=S)=NP(N=C=S)(N=C=S)=N1 (stereo not given)	f
O=[N+]([O-])c1ccc(NS(=O)(=O)c2ccccc2)c2ccccc12	f
Cc1ccc(NC(=O)CN2CCOCC2)cc1Cl	f
O=C1C(Cl)=C(Nc2ccccc2)C(=O)C(Cl)=C1Nc1ccccc1	f
O=C(Cn1c2ccccc2c2ccncc21)N/N=C/c1cc(O)c(O)c(O)c1	f

Record lookup: outcome of this test for "COc1cc(/C=C\c2cc(/C=C\c3ccc(O)c(OC)c3)n(C(=O)CNc3ccccc3OC)n2)ccc1O" ?
f

# lookup: test call for "Nc1nccc2c1ccn2-c1cccc(NC(=O)c2ccc(N3CCOCC3)c(C(F)(F)F)c2)c1"
f

Could you check what this test reported for "CCCCOc1nc2ccc(Cl)cc2cc1/C=C/C(=O)/C=C/c1ccc(Cl)cc1" ?
f

Please share the test call associated with COc1ccc(C2=NN(C(=O)COc3ccc(Cl)cc3)C(O)(c3cc(F)c(Cl)cc3Cl)C2)cc1OC (stereo not given) .
t

====

- Tested on: U251 CNS
- experiment description: NCI-60 one-dose screen, 48 h (100 = growth as untreated, 0 = no growth, -100 = all killed)
- test conditions: 10 µM unless noted
Compounds without any hit were thinned out: in the full panel of roughly 83,000, 20% have a hit. Activity calls are given as the source filed them. Rule for the calls: active = growth percent below 10; inactive = the rest.
Below, each entry is listed with its recorded growth.

molecule	growth
O=C(O)c1cc2ccccc2cc1Nc1ccccc1	93.5% (inactive)

Fill in: U251 CNS growth for "O=c1c2ccccc2sc2c(N3CCCC3)nc3ccccc3c12" = 98.5% (inactive)

Param item: "CNC(=O)NN" ; param system: U251 CNS; output growth: 95.2% (inactive)

The molecule CCN(CC)c1ccc(C2CC(c3cc(OC)c(OC)c(OC)c3)=NN2)cc1 (stereo unspecified) , when measured on U251 CNS, yielded growth of 33% (inactive)

Reported growth (U251 CNS) for entry "CC(=O)Cc1cccnc1" is 98.6% (inactive)

Field growth (system: U251 CNS) for entry "CC(C)Cn1cnc2c3ccccc3nc(NCn3nc(-c4cc(Cl)cc(Cl)c4Cl)oc3=S)c21" = 99% (inactive)

// molecule "O=C(N/N=C1\SCC(=O)N1c1ccccc1)c1cc(-c2cc3ccccc3o2)nn1-c1ccccc1" , assay U251 CNS, growth value: 103% (inactive)

Record for "O=C1c2ccccc2OC=C(c2ccccc2)N1CCCCN1CCCCC1" under target or system U251 CNS: growth reported as 30.3% (inactive)

growth on U251 CNS for "COC(=O)Nc1nc2ccc(Sc3ccccc3)cc2[nH]1" is 17% (inactive)

Short answer on U251 CNS for "CN(C)CCCOc1c(Br)cc(/C=C/C(=O)N(C)CCc2cc(Br)c(OCCCN(C)C)c(Br)c2)cc1Br" , growth: 7.24% (active)

Log: U251 CNS, molecule "c1ccc(OCC[P+](c2ccccc2)(c2ccccc2)c2ccccc2)cc1" , growth = 14.8% (inactive)
